- assay details: Solubility of rizatriptan in supercritical CO2, static gravimetric method
- Type: physicochemical
- condition context: supercritical CO2, T 308.0 K (text 308.2 K), P 30 MPa, ρCO2 929.85 kg/m^3; read-out: Solubility in supercritical carbon dioxide
measured metric: solubility at 240 min

                                   compound  assay_value
0  CN(C)CCc1c[nH]c2ccc(Cn3cncn3)cc12 [Rizatriptan, Rizatriptan benzoate]    237 µg/mL

###

- assay details: Solubility of rizatriptan in supercritical CO2, static gravimetric method
- Format: physicochemical
- condition context: supercritical CO2, T 328.0 K (text 328.2 K), P 27 MPa, ρCO2 828.51 kg/m^3; read-out: Solubility in supercritical carbon dioxide
measured metric: solubility at 240 min

                                   compound  assay_value
0  CN(C)CCc1c[nH]c2ccc(Cn3cncn3)cc12 [Rizatriptan, Rizatriptan benzoate]    260 µg/mL

###

- assay details: Preliminary tests of equilibration time for solubility in SC-CO2 (Table S1)
- Format: physicochemical
- condition context: supercritical CO2, 65 °C, organic solvent or mixture, thermodynamic from solid; T 338, P 30, Time 240; read-out: Solubility (preliminary test)
measured metric: solubility at 240 min (µg/mL)

>>> df
                                   molecule        measured_metric  assay_value
0  CN(C)CCc1c[nH]c2ccc(Cn3cncn3)cc12 [Rizatriptan, Rizatriptan benzoate]  solubility at 240 min          302

###

- assay details: Solubility of rizatriptan in supercritical CO2, static gravimetric method
- Type: physicochemical
- condition context: supercritical CO2, T 338.0 K (text 338.2 K), P 27 MPa, ρCO2 783.19 kg/m^3; read-out: Solubility in supercritical carbon dioxide
- Method: A specialized high-pressure system is employed to measure the solubility of rizatriptan using gravimetric techniques in a supercritical CO2[6]. A 200 mL vessel capable of withstanding pressures up to 35 MPa and temperatures up to 423 K is prepared with leak-free seals, valves, and fittings. All valves and connectors were 1/8 inch in size. The system’s pressure and temperature sensors are calibrated for accuracy. […] The pressure is monitored and held within ± 0.01 MPa. […]
measured metric: solubility at 240 min

In [3]: df
Out[3]:
                                   molecule  assay_value
0  CN(C)CCc1c[nH]c2ccc(Cn3cncn3)cc12 [Rizatriptan, Rizatriptan benzoate]    270 µg/mL

###

- assay details: Solubility of rizatriptan in supercritical CO2, static gravimetric method
- Type: physicochemical
- condition context: supercritical CO2, T 328.0 K (text 328.2 K), P 18 MPa, ρCO2 724.13 kg/m^3; read-out: Solubility in supercritical carbon dioxide
measured metric: solubility at 240 min (µg/mL)

>>> df
                                   molecule  unit_spec  assay_value
0  CN(C)CCc1c[nH]c2ccc(Cn3cncn3)cc12 [Rizatriptan, Rizatriptan benzoate]      µg/mL          114

###

- assay details: Solubility of rizatriptan in supercritical CO2, static gravimetric method
- Assay type: physicochemical
- condition context: supercritical CO2, T 318.0 K (text 318.2 K), P 30 MPa, ρCO2 890.90 kg/m^3; read-out: Solubility in supercritical carbon dioxide
- Protocol: A specialized high-pressure system is employed to measure the solubility of rizatriptan using gravimetric techniques in a supercritical CO2[6]. A 200 mL vessel capable of withstanding pressures up to 35 MPa and temperatures up to 423 K is prepared with leak-free seals, valves, and fittings. All valves and connectors were 1/8 inch in size. The system’s pressure and temperature sensors are calibrated for accuracy. […] The pressure is monitored and held within ± 0.01 MPa. […]
measured metric: solubility at 240 min (µg/mL)

>>> df
                                   compound        measured_metric  unit_spec  assay_value
0  CN(C)CCc1c[nH]c2ccc(Cn3cncn3)cc12 [Rizatriptan, Rizatriptan benzoate]  solubility at 240 min      µg/mL          269

###

- assay details: Solubility of rizatriptan in supercritical CO2, static gravimetric method
- Format: physicochemical
- condition context: supercritical CO2, T 318.0 K (text 318.2 K), P 21 MPa, ρCO2 823.80 kg/m^3; read-out: Solubility in supercritical carbon dioxide
measured metric: solubility at 240 min (µg/mL)

>>> df
                                   compound        measured_metric  assay_value
0  CN(C)CCc1c[nH]c2ccc(Cn3cncn3)cc12 [Rizatriptan, Rizatriptan benzoate]  solubility at 240 min          158

###

- assay details: Solubility of rizatriptan in supercritical CO2, static gravimetric method
- Assay type: physicochemical
- condition context: supercritical CO2, T 328.0 K (text 328.2 K), P 12 MPa, ρCO2 506.75 kg/m^3; read-out: Solubility in supercritical carbon dioxide
measured metric: solubility at 240 min

>>> print(df.to_string())
                                   compound  assay_value
0  CN(C)CCc1c[nH]c2ccc(Cn3cncn3)cc12 [Rizatriptan, Rizatriptan benzoate]   20.4 µg/mL

###

- assay details: Preliminary tests of equilibration time for solubility in SC-CO2 (Table S1)
- Type: physicochemical
- condition context: supercritical CO2, 65 °C, organic solvent or mixture, thermodynamic from solid; T 338, P 30, Time 210; read-out: Solubility (preliminary test)
measured metric: solubility at 210 min (µg/mL)

>>> df
                                   molecule  unit_spec  assay_value
0  CN(C)CCc1c[nH]c2ccc(Cn3cncn3)cc12 [Rizatriptan, Rizatriptan benzoate]      µg/mL          302

###

- assay details: Solubility of rizatriptan in supercritical CO2, static gravimetric method
- Format: physicochemical
- condition context: supercritical CO2, T 318.0 K (text 318.2 K), P 15 MPa, ρCO2 743.83 kg/m^3; read-out: Solubility in supercritical carbon dioxide
measured metric: solubility at 240 min (µg/mL)

>>> df
                                   compound  assay_value
0  CN(C)CCc1c[nH]c2ccc(Cn3cncn3)cc12 [Rizatriptan, Rizatriptan benzoate]         83.5

###

- assay details: Solubility of rizatriptan in supercritical CO2, static gravimetric method
- Assay type: physicochemical
- condition context: supercritical CO2, T 338.0 K (text 338.2 K), P 12 MPa, ρCO2 384.17 kg/m^3; read-out: Solubility in supercritical carbon dioxide
measured metric: solubility at 240 min (µg/mL)

>>> df
                                   molecule        measured_metric  assay_value
0  CN(C)CCc1c[nH]c2ccc(Cn3cncn3)cc12 [Rizatriptan, Rizatriptan benzoate]  solubility at 240 min          8.3

###

- assay details: Solubility of rizatriptan in supercritical CO2, static gravimetric method
- Format: physicochemical
- condition context: supercritical CO2, T 308.0 K (text 308.2 K), P 27 MPa, ρCO2 913.70 kg/m^3; read-out: Solubility in supercritical carbon dioxide
measured metric: solubility at 240 min (µg/mL)

>>> print(df.to_string())
                                   molecule  assay_value
0  CN(C)CCc1c[nH]c2ccc(Cn3cncn3)cc12 [Rizatriptan, Rizatriptan benzoate]          210

###

- assay details: Solubility of rizatriptan in supercritical CO2, static gravimetric method
- Assay type: physicochemical
- condition context: supercritical CO2, T 338.0 K (text 338.2 K), P 18 MPa, ρCO2 651.28 kg/m^3; read-out: Solubility in supercritical carbon dioxide
measured metric: solubility at 240 min (µg/mL)

                                   molecule  assay_value
0  CN(C)CCc1c[nH]c2ccc(Cn3cncn3)cc12 [Rizatriptan, Rizatriptan benzoate]          124

###

- assay details: Solubility of rizatriptan in supercritical CO2, static gravimetric method
- Format: physicochemical
- condition context: supercritical CO2, T 318.0 K (text 318.2 K), P 24 MPa, ρCO2 850.15 kg/m^3; read-out: Solubility in supercritical carbon dioxide
measured metric: solubility at 240 min (µg/mL)

>>> df
                                   compound  assay_value
0  CN(C)CCc1c[nH]c2ccc(Cn3cncn3)cc12 [Rizatriptan, Rizatriptan benzoate]          213

###

- assay details: Solubility of rizatriptan in supercritical CO2, static gravimetric method
- Assay type: physicochemical
- condition context: supercritical CO2, T 338.0 K (text 338.2 K), P 24 MPa, ρCO2 751.27 kg/m^3; read-out: Solubility in supercritical carbon dioxide
- Method: A specialized high-pressure system is employed to measure the solubility of rizatriptan using gravimetric techniques in a supercritical CO2[6]. A 200 mL vessel capable of withstanding pressures up to 35 MPa and temperatures up to 423 K is prepared with leak-free seals, valves, and fittings. All valves and connectors were 1/8 inch in size. The system’s pressure and temperature sensors are calibrated for accuracy. […] The pressure is monitored and held within ± 0.01 MPa. […]
measured metric: solubility at 240 min

>>> df
                                   molecule        measured_metric  assay_value
0  CN(C)CCc1c[nH]c2ccc(Cn3cncn3)cc12 [Rizatriptan, Rizatriptan benzoate]  solubility at 240 min    223 µg/mL
